Tested on: CDK2/CycE (Homo sapiens, UniProt P24941)
Construct: GST; purchased ProQinase GmbH (Freiburg, Germany); host or cells: insect cells (Sf9)
Assay explanation: CDK2/CycE kinase assay (TR-FRET, Method 2a)
Format: biochemical
Particulars: 10 μM ATP
Below, each of the molecules is paired with its reported IC50 value.
Measured metric: IC50 (µM)

CS(=N)(=O)Cc1cc2nc(c1)Nc1cc(c(F)cn1)-c1ccc(F)cc1OCCCCN2 (racemic) | 0.044
CS(=N)(=O)Cc1cc2nc(c1)OCCCCCc1cc(F)ccc1-c1cc(ncc1F)N2 (racemic) | 0.162
CSCc1cc2nc(c1)Nc1cc(c(F)cn1)-c1ccc(F)cc1OCCCN2 | 0.0815
CS(=O)(Cc1cc2nc(c1)Nc1cc(c(F)cn1)-c1ccc(F)cc1OCCCCN2)=NC(=O)OCc1ccccc1 (racemic) | 0.698
CS(=N)(=O)Cc1cc2nc(c1)Nc1cc(c(F)cn1)-c1ccc(F)cc1OCCCCCN2 (racemic) | 0.028
CSCc1cc2nc(c1)OCCCCCc1cc(F)ccc1-c1cc(ncc1F)N2 | 2.56
C[S+]([O-])Cc1cc2nc(c1)OCCCCc1cc(F)ccc1-c1cc(ncc1F)N2 (racemic) | 0.275
CS(=N)(=O)Cc1cc2cc(c1)OCCCCNc1cc(F)ccc1-c1nc(ncc1F)N2 (racemic) | 0.03
CN1CCCCNc2cc(F)ccc2-c2nc(ncc2F)Nc2cc(CS(C)(=N)=O)cc1c2.O=CO (racemic) | 0.074
CC(C)(C)OC(=O)N=S(C)(=O)Cc1cc2nc(c1)Nc1cc(c(F)cn1)-c1ccc(F)cc1OCCCN2 (racemic) | 0.027

---

Tested on: CDK9/CycT1 (Homo sapiens)
Construct: Recombinant full-length His-tagged human CDK9 and CycT1; His; purchased Invitrogen PV4131; host or cells: insect cells
Assay explanation: CDK9/CycT1 high ATP kinase assay (TR-FRET, Method 1b)
Type: biochemical
Particulars: Methods 1b and 2b, 2 mM ATP
Answer NOT MET if Selectivity high ATP CDK9 over high ATP CDK2: IC50 (high ATP CDK2)/IC50 (high ATP CDK9) is under 200, and MET if it is 200 or more.

CN1CCCCOc2cc(F)ccc2-c2nc(ncc2F)Nc2cc(CS(C)(=N)=O)cc1c2 (racemic) | MET
CS(=N)(=O)Cc1cc2cc(c1)Nc1ncc(F)c(n1)-c1ccc(F)cc1OCCCCN2 (racemic) | MET
CC(C)(C)OC(=O)N=S(C)(=O)Cc1cc2nc(c1)Nc1cc(c(F)cn1)-c1ccc(F)cc1OCCCN2 (racemic) | NOT MET
CS(=N)(=O)Cc1cc2nc(c1)OCCCCCc1cc(F)ccc1-c1cc(ncc1F)N2 (racemic) | NOT MET
CC(C)(C)OC(=O)N=S(C)(=O)Cc1cc2cc(c1)OCCCCSc1cc(F)ccc1-c1nc(ncc1F)N2 (racemic) | MET
C[S+]([O-])Cc1cc2nc(c1)OCCCCc1cc(F)ccc1-c1cc(ncc1F)N2 (racemic) | MET

---

Tested on: T1, human PTEFb (CDK9/Cyclin T1) (Homo sapiens, UniProt P50750)
T1 construct: purchased ProQinase, Freiburg, Germany
T1 sequence (P50750 whole entry): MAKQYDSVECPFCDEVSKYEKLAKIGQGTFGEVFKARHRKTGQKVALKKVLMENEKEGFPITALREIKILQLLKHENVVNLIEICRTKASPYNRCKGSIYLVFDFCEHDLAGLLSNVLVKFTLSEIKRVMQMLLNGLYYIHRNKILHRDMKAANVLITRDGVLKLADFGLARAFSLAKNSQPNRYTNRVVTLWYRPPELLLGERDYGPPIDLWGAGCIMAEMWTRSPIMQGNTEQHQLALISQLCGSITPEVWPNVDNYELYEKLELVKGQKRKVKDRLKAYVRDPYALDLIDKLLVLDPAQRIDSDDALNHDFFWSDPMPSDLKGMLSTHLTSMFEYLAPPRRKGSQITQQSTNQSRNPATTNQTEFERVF
T1 sequence (O60563 whole entry partner): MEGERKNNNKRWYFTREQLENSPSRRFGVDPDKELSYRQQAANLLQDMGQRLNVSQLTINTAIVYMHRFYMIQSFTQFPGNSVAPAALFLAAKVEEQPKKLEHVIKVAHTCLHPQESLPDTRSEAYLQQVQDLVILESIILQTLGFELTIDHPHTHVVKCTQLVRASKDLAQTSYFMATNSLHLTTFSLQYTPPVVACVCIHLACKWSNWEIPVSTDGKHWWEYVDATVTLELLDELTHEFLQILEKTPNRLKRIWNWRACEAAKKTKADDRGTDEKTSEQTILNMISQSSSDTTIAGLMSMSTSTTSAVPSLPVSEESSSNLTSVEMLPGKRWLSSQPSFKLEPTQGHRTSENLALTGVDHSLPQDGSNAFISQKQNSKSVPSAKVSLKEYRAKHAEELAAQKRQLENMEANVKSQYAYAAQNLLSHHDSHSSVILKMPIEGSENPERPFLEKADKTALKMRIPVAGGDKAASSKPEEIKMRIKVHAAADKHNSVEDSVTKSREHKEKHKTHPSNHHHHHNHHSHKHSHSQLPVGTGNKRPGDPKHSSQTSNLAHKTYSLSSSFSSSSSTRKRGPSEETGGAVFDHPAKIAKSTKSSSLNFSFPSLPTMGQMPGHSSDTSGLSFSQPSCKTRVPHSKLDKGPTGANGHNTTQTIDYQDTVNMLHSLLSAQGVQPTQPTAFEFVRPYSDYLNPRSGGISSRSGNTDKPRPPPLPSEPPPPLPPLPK
Assay explanation: Surface Plasmon Resonance PTEFb (Method 8)
Type: binding
Particulars: 37° C.; 1/koff; experimental parameters E
Marks after values point to notes of the source that are not given here.
Below, each of the molecules is paired with its reported Target resident time value.
Measured metric: Target resident time

CS(=N)(=O)Cc1cc2cc(c1)OCCCCSc1cc(F)ccc1-c1nc(ncc1F)N2 (racemic) | 17.5* min
CS(=N)(=O)Cc1cc2cc(c1)OCCCCNc1cc(F)ccc1-c1nc(ncc1F)N2 (racemic) | 46.3* min
CS(=N)(=O)Cc1cc2cc(c1)Nc1ncc(F)c(n1)-c1ccc(F)cc1OCCCCN2 (racemic) | 14.7* min
CN1CCCCNc2cc(F)ccc2-c2nc(ncc2F)Nc2cc(CS(C)(=N)=O)cc1c2.O=CO (racemic) | 115.7* min

---

Test system: B16F10 cells
Assay explanation: Proliferation assay, crystal violet (Method 3)
Assay type: cell-based
Particulars: Mus musculus, B16-F10, 96 h; B16F10, 4 days; read-out: Inhibition of B16F10 cell proliferation IC50
pIC50: −log10 of the molar value.
Below, each of the compounds is paired with its reported pIC50 value.
Measured metric: pIC50

CS(=N)(=O)Cc1cc2nc(c1)Nc1cc(c(F)cn1)-c1ccc(F)cc1OCCCN2 (racemic) | 7.96
CS(=N)(=O)Cc1cc2nc(c1)OCCCCCc1cc(F)ccc1-c1cc(ncc1F)N2 (racemic) | 6.06
CSCc1cc2nc(c1)Nc1cc(c(F)cn1)-c1ccc(F)cc1OCCCN2 | 7.29
CN1CCCCOc2cc(F)ccc2-c2cc(ncc2F)Nc2cc(CS(C)(=N)=O)cc1n2 (racemic) | 7.92
CS(=N)(=O)Cc1cc2cc(c1)OCCCCSc1cc(F)ccc1-c1nc(ncc1F)N2 (racemic) | 6.96

---

Tested on: CDK9/CycT1 (Homo sapiens, UniProt P50750)
Construct: Recombinant full-length His-tagged human CDK9 and CycT1; His; purchased Invitrogen PV4131; host or cells: insect cells
Assay explanation: CDK9/CycT1 kinase assay (TR-FRET, Method 1a)
Assay type: biochemical
Particulars: Method 1a, 10 μM ATP
pIC50: −log10 of the molar value.
Answer FALSE if pIC50 is under 8, and TRUE if it is 8 or more.

CN1CCCCNc2cc(F)ccc2-c2nc(ncc2F)Nc2cc(CS(C)(=N)=O)cc1c2.O=CO (racemic) | TRUE
CS(=N)(=O)Cc1cc2cc(c1)OCCCCNc1cc(F)ccc1-c1nc(ncc1F)N2 (racemic) | TRUE
CSCc1cc2nc(c1)OCCCCCc1cc(F)ccc1-c1cc(ncc1F)N2 | FALSE
CC(C)(C)OC(=O)N=S(C)(=O)Cc1cc2cc(c1)Nc1ncc(F)c(n1)-c1ccc(F)cc1OCCCCN2 (racemic) | FALSE
CSCc1cc2nc(c1)Nc1cc(c(F)cn1)-c1ccc(F)cc1OCCCN2 | TRUE

---

Tested on: A2780 cells
Assay explanation: Proliferation assay, Cell Titre-Glo viability (Method 3)
Format: cell-based, human
Particulars: Homo sapiens, A2780, 72 h, A2780, 72-hour exposure; read-out: Inhibition of A2780 cell proliferation IC50
pIC50: −log10 of the molar value.
Measured metric: pIC50

CC(C)(C)OC(=O)N=S(C)(=O)Cc1cc2cc(c1)OCCCCSc1cc(F)ccc1-c1nc(ncc1F)N2 (racemic) | < 7.00
C[S+]([O-])Cc1cc2nc(c1)OCCCCCc1cc(F)ccc1-c1cc(ncc1F)N2 (racemic) | < 7.00
CS(=N)(=O)Cc1cc2nc(c1)OCCCCCc1cc(F)ccc1-c1cc(ncc1F)N2 (racemic) | < 7.00
